- experimental-system: Vascular endothelial growth factor receptor 2 (Homo sapiens)
- Sequence (P35968 whole entry): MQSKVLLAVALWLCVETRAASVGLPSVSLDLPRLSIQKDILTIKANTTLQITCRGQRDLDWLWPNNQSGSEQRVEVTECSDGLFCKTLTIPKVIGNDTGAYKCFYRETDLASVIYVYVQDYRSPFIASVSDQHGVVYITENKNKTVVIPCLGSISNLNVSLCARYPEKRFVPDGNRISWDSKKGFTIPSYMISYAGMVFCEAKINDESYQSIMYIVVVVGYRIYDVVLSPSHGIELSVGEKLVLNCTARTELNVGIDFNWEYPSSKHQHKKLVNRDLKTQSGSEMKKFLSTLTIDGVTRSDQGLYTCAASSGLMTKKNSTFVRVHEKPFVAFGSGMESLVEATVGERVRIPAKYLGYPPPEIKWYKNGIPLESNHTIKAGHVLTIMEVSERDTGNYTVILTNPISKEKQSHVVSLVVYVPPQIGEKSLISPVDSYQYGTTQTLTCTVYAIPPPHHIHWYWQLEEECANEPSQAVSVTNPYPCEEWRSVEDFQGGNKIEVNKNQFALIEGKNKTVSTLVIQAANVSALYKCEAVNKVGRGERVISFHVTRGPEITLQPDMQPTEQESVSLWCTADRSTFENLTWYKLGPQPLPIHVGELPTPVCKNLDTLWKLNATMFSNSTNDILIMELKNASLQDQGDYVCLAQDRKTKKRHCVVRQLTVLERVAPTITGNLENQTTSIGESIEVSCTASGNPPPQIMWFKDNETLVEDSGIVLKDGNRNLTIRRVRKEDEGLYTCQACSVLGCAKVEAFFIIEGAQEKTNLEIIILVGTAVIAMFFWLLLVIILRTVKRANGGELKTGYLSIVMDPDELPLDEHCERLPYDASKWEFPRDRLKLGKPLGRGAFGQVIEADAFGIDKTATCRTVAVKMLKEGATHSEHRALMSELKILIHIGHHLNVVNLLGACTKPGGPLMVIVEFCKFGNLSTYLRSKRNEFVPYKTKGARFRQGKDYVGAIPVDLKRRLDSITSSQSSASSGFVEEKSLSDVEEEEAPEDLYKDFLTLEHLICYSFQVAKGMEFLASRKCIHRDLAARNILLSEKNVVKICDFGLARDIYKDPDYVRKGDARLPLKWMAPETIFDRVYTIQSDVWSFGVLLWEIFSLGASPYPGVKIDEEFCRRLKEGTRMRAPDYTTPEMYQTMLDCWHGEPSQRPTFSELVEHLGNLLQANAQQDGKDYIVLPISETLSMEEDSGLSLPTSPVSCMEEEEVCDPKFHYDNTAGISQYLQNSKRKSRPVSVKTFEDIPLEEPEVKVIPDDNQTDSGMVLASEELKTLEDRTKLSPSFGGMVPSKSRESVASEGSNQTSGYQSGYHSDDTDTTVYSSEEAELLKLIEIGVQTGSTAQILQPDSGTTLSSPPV
pIC50: −log10 of the molar value.
metric-name: pIC50

What does the data say about its pIC50? Entry: Cc1ccc(C(=O)Nc2ccon2)cc1Nc1ncnc(NC2CCCC2)c1C#N
< 4.52

====

- Tested on: PBMC
- assay-explanation: Concentration required to inhibit LPS-induced TNFalpha production in human peripheral blood mononuclear cells; n=3
- Type: functional, cell-based
met if IC50 is below 9 µM. not met if not; exact matches included in not met.

Here are 5 compounds together with their reported answers.
1) CNc1ncnc(Nc2cc(C(=O)NOC)ccc2C)c1C#N; not met
2) CCn1nccc1NC(=O)c1ccc(C)c(Nc2ncnc(NC(C)C)c2C#N)c1; not met
3) CCCNc1ncnc(Nc2cc(C(=O)NOC)ccc2C)c1C#N; not met
4) Cc1ccc(C(=O)Nc2ccon2)cc1Nc1ncnc(NC(C)C)c1C#N; met
5) CONC(=O)c1ccc(C)c(Nc2nc(N3CCCN(C)CC3)nc(N(C)CC(C)(C)C)c2C#N)c1; met

Hello, is IC50 of the following compound strictly smaller than 9 µM? Cc1ccc(C(=O)Nc2ccon2)cc1Nc1nc(N)nc(NC2CCCC2)c1C#N
met

====

- experimental-system: Inhibitor of NF-kappa-B kinase (IKK) (Homo sapiens, UniProt O14920+O15111+Q9Y6K9)
- Sequence (O14920 whole entry): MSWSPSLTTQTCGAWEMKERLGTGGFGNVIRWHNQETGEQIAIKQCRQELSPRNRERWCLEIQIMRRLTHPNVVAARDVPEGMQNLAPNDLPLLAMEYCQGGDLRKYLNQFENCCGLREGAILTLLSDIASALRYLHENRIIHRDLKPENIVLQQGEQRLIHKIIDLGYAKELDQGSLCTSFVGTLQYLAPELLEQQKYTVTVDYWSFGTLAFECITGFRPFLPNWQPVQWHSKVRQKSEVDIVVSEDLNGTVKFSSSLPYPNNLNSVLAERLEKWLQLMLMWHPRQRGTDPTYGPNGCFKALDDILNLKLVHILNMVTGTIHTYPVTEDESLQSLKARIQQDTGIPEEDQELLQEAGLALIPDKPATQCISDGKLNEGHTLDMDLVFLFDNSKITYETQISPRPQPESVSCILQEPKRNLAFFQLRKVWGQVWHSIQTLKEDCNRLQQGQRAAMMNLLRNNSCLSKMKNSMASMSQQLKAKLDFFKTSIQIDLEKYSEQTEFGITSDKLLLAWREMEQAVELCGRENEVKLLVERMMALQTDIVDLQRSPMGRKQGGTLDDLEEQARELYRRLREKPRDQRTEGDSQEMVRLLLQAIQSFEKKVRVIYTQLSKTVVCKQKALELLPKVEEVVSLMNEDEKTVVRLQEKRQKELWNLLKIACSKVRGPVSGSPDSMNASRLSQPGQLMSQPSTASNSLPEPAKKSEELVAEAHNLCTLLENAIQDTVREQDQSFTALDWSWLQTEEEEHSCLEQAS
- Sequence (O15111 whole entry): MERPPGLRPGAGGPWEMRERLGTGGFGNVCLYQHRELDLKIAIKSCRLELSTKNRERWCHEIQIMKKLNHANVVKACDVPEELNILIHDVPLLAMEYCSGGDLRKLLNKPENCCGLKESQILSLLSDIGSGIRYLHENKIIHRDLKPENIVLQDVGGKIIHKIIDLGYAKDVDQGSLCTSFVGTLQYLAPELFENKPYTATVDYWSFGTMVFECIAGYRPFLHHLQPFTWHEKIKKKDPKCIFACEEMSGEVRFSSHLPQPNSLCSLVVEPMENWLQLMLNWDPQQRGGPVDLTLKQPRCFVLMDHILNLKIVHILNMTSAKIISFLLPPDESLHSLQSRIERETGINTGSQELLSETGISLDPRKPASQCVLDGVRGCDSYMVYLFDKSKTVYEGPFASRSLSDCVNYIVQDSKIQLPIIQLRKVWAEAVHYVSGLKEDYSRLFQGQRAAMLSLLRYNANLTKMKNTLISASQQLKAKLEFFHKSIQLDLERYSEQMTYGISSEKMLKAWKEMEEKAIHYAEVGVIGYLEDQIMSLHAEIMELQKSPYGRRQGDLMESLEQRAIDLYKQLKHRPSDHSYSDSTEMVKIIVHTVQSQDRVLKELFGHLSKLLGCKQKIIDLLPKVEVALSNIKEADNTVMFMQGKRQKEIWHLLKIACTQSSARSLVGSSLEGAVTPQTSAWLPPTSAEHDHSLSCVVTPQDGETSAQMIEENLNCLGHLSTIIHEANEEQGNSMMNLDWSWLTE
- Sequence (Q9Y6K9 whole entry): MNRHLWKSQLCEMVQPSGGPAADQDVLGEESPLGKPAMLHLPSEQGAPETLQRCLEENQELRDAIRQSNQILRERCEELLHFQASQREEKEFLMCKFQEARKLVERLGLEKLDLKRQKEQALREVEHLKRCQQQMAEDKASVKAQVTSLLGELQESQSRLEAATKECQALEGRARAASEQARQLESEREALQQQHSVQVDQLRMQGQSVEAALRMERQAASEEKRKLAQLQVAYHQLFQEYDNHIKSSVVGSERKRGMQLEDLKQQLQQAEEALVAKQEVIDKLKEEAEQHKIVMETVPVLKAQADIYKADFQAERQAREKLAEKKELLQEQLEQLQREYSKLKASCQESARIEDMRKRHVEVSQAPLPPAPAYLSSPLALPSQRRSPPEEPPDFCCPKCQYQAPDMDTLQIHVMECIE
- assay-explanation: Inhibitory concentration against IKK
- Assay type: protein-complex assay
metric-name: IC50

What does the data say about its IC50? Entry: Cc1ccc(C(=O)Nc2ccon2)cc1Nc1ncnc(NC2CCCC2)c1C#N
> 10 µM

====

- experimental-system: Dual specificity mitogen-activated protein kinase kinase 1 (Homo sapiens, UniProt Q02750)
- Sequence (Q02750 whole entry): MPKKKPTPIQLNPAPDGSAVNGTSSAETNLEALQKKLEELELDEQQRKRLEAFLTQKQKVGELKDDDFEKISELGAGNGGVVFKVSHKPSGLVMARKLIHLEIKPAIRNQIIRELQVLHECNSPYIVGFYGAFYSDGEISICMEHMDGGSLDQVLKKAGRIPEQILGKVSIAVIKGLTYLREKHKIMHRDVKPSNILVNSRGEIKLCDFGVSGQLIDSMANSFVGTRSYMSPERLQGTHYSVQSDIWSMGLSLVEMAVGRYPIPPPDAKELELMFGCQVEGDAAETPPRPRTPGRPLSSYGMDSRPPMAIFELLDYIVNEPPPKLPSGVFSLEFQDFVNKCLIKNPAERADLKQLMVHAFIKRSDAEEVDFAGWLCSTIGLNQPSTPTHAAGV
- assay-explanation: Inhibitory concentration against MEK
pIC50: −log10 of the molar value.
metric-name: pIC50

Notebook: pull reported pIC50 for Dual specificity mitogen-activated protein kinase kinase 1 (Homo sapiens, UniProt Q02750), entry Cc1ccc(C(=O)Nc2ccon2)cc1Nc1ncnc(NC2CCCC2)c1C#N
< 4.60

These entries and their values trace back to ChEMBL document CHEMBL1141103.
